# procedure.details: protein stability index of a GFP-peptide fusion (GPS, HEK-293T) (PSI 1-6); higher = more stable;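 also: 24-mer peptide tiles fused after GFP, lentivirally expressed, FACS-sorted into six equal bins by GFP/DsRed ratio, decoded by Illumina sequencing, PSI is the read-weighted mean bin number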
# test.context: treatment: MLN4924 1 uM, 8 h; c terminus: a fixed tail appended
measured.quantity: protein stability index

[
  {
    "primary.sequence": "YQPEPFACGIEHCSVHYVSDSGDG [FBXO34]",
    "measured.quantity": "protein stability index",
    "recorded.measurement": 3.04
  },
  {
    "primary.sequence": "FYRLYQDLETHRLPCTSRCPRPCR [SCNN1D]",
    "measured.quantity": "protein stability index",
    "recorded.measurement": 2.99
  },
  {
    "primary.sequence": "FPVAEQDKLLKHMIIEHKIVIADV [ZNF277]",
    "measured.quantity": "protein stability index",
    "recorded.measurement": 2.4
  },
  {
    "primary.sequence": "LVVLVVAVVASSVNSYYSSPAQQV [TOR1AIP2]",
    "measured.quantity": "protein stability index",
    "recorded.measurement": 3.21
  },
  {
    "primary.sequence": "HFFGDKALKKRSGKKDKHSQSPRA [PBXIP1]",
    "measured.quantity": "protein stability index",
    "recorded.measurement": 4.33
  },
  {
    "primary.sequence": "GNRILDEKEQEKMRQDLEEERVAL [PKD2L1]",
    "measured.quantity": "protein stability index",
    "recorded.measurement": 5.57
  },
  {
    "primary.sequence": "ITESYQTLHPISSEELLSLKYEND [ETS1]",
    "measured.quantity": "protein stability index",
    "recorded.measurement": 4.85
  },
  {
    "primary.sequence": "LPSERLDFSMAEALNQEFLATRSN [PRPH]",
    "measured.quantity": "protein stability index",
    "recorded.measurement": 4.3
  },
  {
    "primary.sequence": "QAREKELLELQSQQACTHTKETEQ [CCDC89]",
    "measured.quantity": "protein stability index",
    "recorded.measurement": 5.61
  },
  {
    "primary.sequence": "LGVALFTMLAGHYPFQDSEPVLLF [TRIB3]",
    "measured.quantity": "protein stability index",
    "recorded.measurement": 2.93
  },
  {
    "primary.sequence": "NGRACEMNGEECAEDLRMLDASGE [IKZF1]",
    "measured.quantity": "protein stability index",
    "recorded.measurement": 5.36
  },
  {
    "primary.sequence": "SEPIRRAGKSGTSTPTTPGSTAIT [MAP2]",
    "measured.quantity": "protein stability index",
    "recorded.measurement": 4.65
  },
  {
    "primary.sequence": "FSTCGSHLTVVAIFYGSGIFNYMR [OR3A1]",
    "measured.quantity": "protein stability index",
    "recorded.measurement": 2.94
  },
  {
    "primary.sequence": "DTDVDMEGLRRRRGREAGPPQPMV [PBXIP1]",
    "measured.quantity": "protein stability index",
    "recorded.measurement": 5.04
  },
  {
    "primary.sequence": "EIFGPVTCVVPFDSEEEVIERANN [ALDH8A1]",
    "measured.quantity": "protein stability index",
    "recorded.measurement": 5.17
  },
  {
    "primary.sequence": "ESGPSAEKYSVATQLFIGGVTGWC [FUNDC2]",
    "measured.quantity": "protein stability index",
    "recorded.measurement": 1.97
  },
  {
    "primary.sequence": "TDDDGQAPEAKDGSSFSGRVFRVT [APMAP]",
    "measured.quantity": "protein stability index",
    "recorded.measurement": 4.74
  },
  {
    "primary.sequence": "LHLKRQPKRRWLFWNSPSSPSSSA [RHOBTB2]",
    "measured.quantity": "protein stability index",
    "recorded.measurement": 2.53
  },
  {
    "primary.sequence": "VSFVIHNLPIIAKMAAVSKASGRF [SEPHS2]",
    "measured.quantity": "protein stability index",
    "recorded.measurement": 2.75
  },
  {
    "primary.sequence": "SSSPASVTTEQLGAKMTERGSVAR [PXN]",
    "measured.quantity": "protein stability index",
    "recorded.measurement": 4.76
  },
  {
    "primary.sequence": "FEEVLSSTAHASAQSLAGGSRRTK [TPD52L1]",
    "measured.quantity": "protein stability index",
    "recorded.measurement": 5.11
  },
  {
    "primary.sequence": "HGLQEGKDLFTQRQNSAPARMLSS [CDC25A]",
    "measured.quantity": "protein stability index",
    "recorded.measurement": 4.46
  },
  {
    "primary.sequence": "GYSMNFNMSSSRGPLPVKRGPPPR [RBMX]",
    "measured.quantity": "protein stability index",
    "recorded.measurement": 3.82
  },
  {
    "primary.sequence": "NGFTPLHFAAASTHGALCLELLVN [ANKRD44]",
    "measured.quantity": "protein stability index",
    "recorded.measurement": 2.95
  },
  {
    "primary.sequence": "MACPYSVLISGDIKDRLKKKEDCL [FAM98B]",
    "measured.quantity": "protein stability index",
    "recorded.measurement": 3.49
  },
  {
    "primary.sequence": "WIQVTSLRIFVWLLLLYFMQVIAI [PHTF1]",
    "measured.quantity": "protein stability index",
    "recorded.measurement": 2.93
  }
]
